# measured-target: PfCSPFL, recombinant full-length P. falciparum NF54 circumsporozoite protein devoid of signal peptide and GPI … (P. falciparum NF54, UniProt P19597)
# Sequence (P19597 20-384): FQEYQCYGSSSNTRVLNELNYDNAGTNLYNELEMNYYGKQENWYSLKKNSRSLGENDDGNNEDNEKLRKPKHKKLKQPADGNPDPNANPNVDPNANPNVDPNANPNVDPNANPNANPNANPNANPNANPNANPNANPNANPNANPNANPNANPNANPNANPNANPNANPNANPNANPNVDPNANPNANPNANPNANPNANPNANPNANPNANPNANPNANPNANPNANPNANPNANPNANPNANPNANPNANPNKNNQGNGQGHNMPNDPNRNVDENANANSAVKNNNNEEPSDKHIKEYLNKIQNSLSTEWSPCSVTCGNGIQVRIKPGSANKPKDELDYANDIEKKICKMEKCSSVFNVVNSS
measured-attribute: binding result

Worked examples, 5 binders total:
binder	binding result
sdAb6 (VHH) VHH: QVQLQESGGGLVQAGGSLRVSCVGSGRAFSRYSMGWFRQFPGKEREFVACISSSGGAIDYADSVKGRFTISRDNAKNAVYLQMNSLKPDDTAVYYCAADQFRISTVPMGVIDYWGQGTQVTVSS	binds
sdAb8 (VHH) VHH: QVQLQESGGGLVQAGGSLRLSCAASGRTVSSYTMGWFRQAPGKERSFVAASLRSGGSTYYSDSVKGRFTISRDNAKNTVYLQMNSLRPEDTAVYYCAADEQLAYNINYNYRNYDYWGQGTQVTVSS	binds
sdAb2 (VHH) VHH: QVQLQESGGGLVQFGGSLRLSCAASGFTFSSANMSWVRQAPGKGLEWVSTISPGGGTTSYAGSVKGRFTISRDNAKNTLYLQMNALKPEDTAVYYCATGGPSSQESVYRGQGTQVTVSS	binds
sdAb3 (VHH) VHH: QVQLQESGGGLVQAGGSLRLSCAASGRTFTEYSMGWFRQAPGKEREFVARISWSGGSTYYADSVKGRFTISRDNAENTVYLQMTSLKPEDTAVYYCAADQLQFGRNSRAADYDDWGQGTQVTVSS	binds
sdAb10 (VHH) VHH: QVQLQESGGGLVQPGGSLRLSCAASGRTFSSYTMGWFRQAPGKERELVAAISRSGLNTDYADSVKGRFTISRDNAKNTVYLQMNTLKPEDTAVYYCAARSTIRLLTDPSYDYWGQGTQVTVSS	binds

Let us move to another entry and its binding result.
Given sdAb4 (VHH) VHH: QVQLQESGGGLVQVGGSLRLSCAASGRTFSSYTMAWFRQAPGKEREFVAAISRSGSNTYYADSVKGRFTISRDNAKNTVYLQMSSLYPEDTAVYTCAARDAILLLTTTHYDYWGQGTQVTVSS , respond with its binding result.
binds

All values here come from paper PMC12150756.
